Hey, just so you know, these numbers are from ChEMBL document CHEMBL1139014.

# STUDY TARGET: UniProt O75795
# Sequence (O75795 whole entry): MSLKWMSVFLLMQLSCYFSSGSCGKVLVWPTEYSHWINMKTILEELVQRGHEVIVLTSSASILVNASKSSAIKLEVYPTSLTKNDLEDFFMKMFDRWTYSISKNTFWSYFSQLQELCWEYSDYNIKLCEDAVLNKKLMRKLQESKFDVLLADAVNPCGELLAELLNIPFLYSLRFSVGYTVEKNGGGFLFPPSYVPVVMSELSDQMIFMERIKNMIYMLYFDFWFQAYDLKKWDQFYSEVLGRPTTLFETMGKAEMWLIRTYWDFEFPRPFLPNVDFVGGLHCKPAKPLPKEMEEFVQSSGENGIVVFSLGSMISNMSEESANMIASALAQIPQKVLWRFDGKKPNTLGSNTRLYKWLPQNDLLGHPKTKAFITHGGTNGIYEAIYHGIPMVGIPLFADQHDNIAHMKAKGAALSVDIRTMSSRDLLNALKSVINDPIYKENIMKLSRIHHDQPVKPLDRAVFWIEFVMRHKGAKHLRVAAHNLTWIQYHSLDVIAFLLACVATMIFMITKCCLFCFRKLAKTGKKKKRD
ASSAY READOUT: IC50 (µM)
State the answer as a number, implicitly in µM.

Reference set, count: 5
O[C@@H]1CCOc2ccccc21; 448
C[C@@H](O)c1ccc2ccccc2c1; 578
COc1cccc2c1CCC[C@@H]2O; 132
Cc1ccc2c(c1)[C@H](O)CCO2; 365
Cc1cc(C)c2c(c1)[C@H](O)CCC2 (racemic); 144

Item `O[C@@H]1CCCc2ccccc21` : provide IC50
242

Item Cc1ccc2c(c1)[C@@H](O)CCO2 (racemic) : provide IC50
325

====

# STUDY TARGET: UGT2B7 (Homo sapiens)
# Sequence (P16662 whole entry): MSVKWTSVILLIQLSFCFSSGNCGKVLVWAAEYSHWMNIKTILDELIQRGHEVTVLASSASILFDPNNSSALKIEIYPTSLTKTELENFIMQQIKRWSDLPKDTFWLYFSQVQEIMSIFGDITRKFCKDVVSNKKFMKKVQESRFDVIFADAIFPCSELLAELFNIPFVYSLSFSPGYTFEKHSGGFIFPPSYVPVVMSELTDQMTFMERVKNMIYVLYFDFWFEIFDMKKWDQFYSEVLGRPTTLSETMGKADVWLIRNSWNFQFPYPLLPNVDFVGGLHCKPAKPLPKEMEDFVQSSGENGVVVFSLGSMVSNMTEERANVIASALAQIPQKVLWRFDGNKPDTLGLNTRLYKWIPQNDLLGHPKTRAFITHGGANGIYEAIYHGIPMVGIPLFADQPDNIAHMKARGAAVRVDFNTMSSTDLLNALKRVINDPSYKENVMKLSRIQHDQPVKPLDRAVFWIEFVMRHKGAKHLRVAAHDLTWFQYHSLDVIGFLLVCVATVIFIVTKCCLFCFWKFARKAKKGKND
# MEASUREMENT PROTOCOL: Inhibition of UGT2B7
# DETAILS: human; read-out: Imax
Lab note: compare Emax with 70%, writing 1 if less and -1 if equal or more.

COc1ccc2c(c1)[C@H](O)CCC2 (racemic); -1
Cc1ccc2c(c1)[C@@H](O)CC2; 1
Cc1ccc2c(c1)[C@@H](O)CCO2 (racemic); -1
COc1cccc2c1CCC[C@H]2O (racemic); -1
Cc1cc(C)c2c(c1)[C@@H](O)CCC2; -1
O=[N+]([O-])c1ccc2c(c1)[C@H](O)CCC2 (racemic); 1
O[C@@H]1CCc2ccccc21; -1
Cc1cc(C)c2c(c1)[C@H](O)CCC2 (racemic); -1
O=[N+]([O-])c1ccc2c(c1)[C@@H](O)CCC2; 1
COc1ccc2c(c1)[C@@H](O)CCC2; -1

Is the reported Emax for `O[C@H]1CCc2ccccc21` strictly below 70%?
1

Is the reported Emax for `COc1cccc2c1CCC[C@@H]2O` strictly below 70%?
-1

Is the reported Emax for `Cc1cccc2c1CC[C@@H]2O` strictly below 70%?
-1
